Answer each item with its documented IC50.
Test system: NiV-pVSV
Assay: microbe, parasite or virus in culture
Assay type: cell-based, Nipah virus envelope pseudotyped onto VSV
Conditions: Vesicular stomatitis virus, Vero
Reply numerically in nM, unit not repeated.

Recall and state the measured IC50 for CCN1C(=O)/C(=C/c2ccc(-c3ccccc3O)o2)SC1=S [LJ-016] .
2200

Please report IC50 for the following compound: C=CCN1C(=O)S/C(=C\c2ccc(-c3ccccc3)o2)C1=S [LJ-029]
4320

Specify reported IC50 for the compound shown: CCN1C(=O)/C(=C/c2ccc(-c3cccc(OC)c3)o2)SC1=S [LJ-011]
1500
